- ASSAY: recombinant barcode read abundance after kanamycin selection (control-corrected) (log10(CPM+1)); higher = more efficient recombination; sequences stand for … in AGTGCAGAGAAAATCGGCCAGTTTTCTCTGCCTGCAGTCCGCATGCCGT…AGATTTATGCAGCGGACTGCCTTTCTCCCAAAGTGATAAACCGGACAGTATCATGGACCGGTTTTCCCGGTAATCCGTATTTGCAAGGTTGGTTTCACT; site = the 11-nt target;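 also: IS621 recombinase and bridge RNA in Escherichia coli cells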
Class 1: recombinant barcode read abundance (log10) at least 0.3. Class 0: recombinant barcode read abundance (log10) below 0.3.

{"SEQUENCE_DATA": "CGTACGACTTGGGTTCTAACCTGTTGCAT (site CGTACGACTAT)", "CLASS_LABEL": 0}
{"SEQUENCE_DATA": "CTAAGCTCTTGGGTTCTAACCTGTTGCTC (site CTAAGCTCTCA)", "CLASS_LABEL": 0}
{"SEQUENCE_DATA": "ATGCCATCTTGGGTTCTAACCTGTTGCCT (site ATGCCATCTAG)", "CLASS_LABEL": 1}
{"SEQUENCE_DATA": "AGGCTGTCTTGGGTTCTAACCTGTTGCCT (site AGGCTGCCTAG)", "CLASS_LABEL": 1}
{"SEQUENCE_DATA": "GCGCGTGCTTGGGTTCTAACCTGTTGCCT (site GCCCGTGCTAG)", "CLASS_LABEL": 1}
{"SEQUENCE_DATA": "TCGGCGACTTGGGTTCTAACCTGTTGCCT (site TCTGCGACTAG)", "CLASS_LABEL": 0}
{"SEQUENCE_DATA": "CACAGACCTTGGGTTCTAACCTGTTGCCT (site TACAGACCTAG)", "CLASS_LABEL": 0}
{"SEQUENCE_DATA": "GGGGCTACTTGGGTTCTAACCTGTTGCCT (site GGGGCTACTAG)", "CLASS_LABEL": 1}
{"SEQUENCE_DATA": "ATTGCTACTTGGGTTCTAACCTGTTGCCA (site ATTGCTACTTG)", "CLASS_LABEL": 0}
{"SEQUENCE_DATA": "TGGTATTCTTGGGTTCTAACCTGTTGCCT (site TGGTATGCTAG)", "CLASS_LABEL": 0}

----------
- ASSAY: recombinant barcode read abundance after kanamycin selection (control-corrected) (log10(CPM+1)); higher = more efficient recombination; sequences stand for … in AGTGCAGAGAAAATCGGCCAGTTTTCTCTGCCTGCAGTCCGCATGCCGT…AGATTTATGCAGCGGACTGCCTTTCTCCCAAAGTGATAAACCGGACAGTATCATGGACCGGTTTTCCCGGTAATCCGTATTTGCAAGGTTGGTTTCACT; site = the 11-nt target
Class Yes: recombinant barcode read abundance (log10) at least 1. Class No: recombinant barcode read abundance (log10) below 1.

{"SEQUENCE_DATA": "GTACTGCCTTGGGTTCTAACCTGTTGCCT (site GTACTGCCTAG)", "CLASS_LABEL": "Yes"}
{"SEQUENCE_DATA": "GATTCTACTTGGGTTCTAACCTGTTGCTT (site GACTCTACTAA)", "CLASS_LABEL": "No"}
{"SEQUENCE_DATA": "TGCCGCTCTTGGGTTCTAACCTGTTGCCT (site TGACGCTCTAG)", "CLASS_LABEL": "Yes"}
{"SEQUENCE_DATA": "TACTATGCTTGGGTTCTAACCTGTTGCCT (site TACTATGCTAG)", "CLASS_LABEL": "Yes"}
{"SEQUENCE_DATA": "CAGAGCTCTTGGGTTCTAACCTGTTGCCG (site CAGAGCTCTCG)", "CLASS_LABEL": "Yes"}
